FYI, the data here is from patent US20140023611A1.

Known IC50 of a selection of compounds
assayedSystem: rat NaP2b (SLC34A2) (Rattus norvegicus, UniProt Q9JJ09)
Construct: host or cells: HEK293
Sequence (Q9JJ09 1-695): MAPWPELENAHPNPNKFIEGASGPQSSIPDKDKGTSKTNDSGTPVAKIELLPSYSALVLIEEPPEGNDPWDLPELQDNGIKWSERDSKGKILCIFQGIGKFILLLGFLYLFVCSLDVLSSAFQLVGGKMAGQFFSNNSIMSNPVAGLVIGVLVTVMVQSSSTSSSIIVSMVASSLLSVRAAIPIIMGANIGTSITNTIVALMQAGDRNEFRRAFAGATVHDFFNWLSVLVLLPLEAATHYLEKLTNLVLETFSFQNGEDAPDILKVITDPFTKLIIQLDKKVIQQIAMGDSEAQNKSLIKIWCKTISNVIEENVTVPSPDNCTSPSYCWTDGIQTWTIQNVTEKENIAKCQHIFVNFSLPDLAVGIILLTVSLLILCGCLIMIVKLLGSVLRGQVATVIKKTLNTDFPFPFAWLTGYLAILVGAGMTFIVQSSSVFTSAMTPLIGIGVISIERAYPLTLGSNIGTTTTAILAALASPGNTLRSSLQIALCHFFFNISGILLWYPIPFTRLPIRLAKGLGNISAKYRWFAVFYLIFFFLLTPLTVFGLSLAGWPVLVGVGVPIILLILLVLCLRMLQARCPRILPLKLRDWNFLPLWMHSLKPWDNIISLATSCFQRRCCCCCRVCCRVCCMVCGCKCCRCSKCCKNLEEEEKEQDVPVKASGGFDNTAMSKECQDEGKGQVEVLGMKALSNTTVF
assayNotes: Inhibition of NaP2b-mediated Pi (33P) uptake in transfected HEK293 cells, rat NaP2b
Format: cell-based
conditionLabel: 33P Pi uptake, 0.1 mM phosphate, value given as pIC50 range

compound	assayedSystem	IC50
CCN(CC)c1ccc(NC(=O)c2cccc(C(=O)N(C)CCN3CCN(C(=O)COCCOCCOCCOCCOCCOCCOCCOC)CC3)c2)c(-c2cc(C(=O)N[C@H]3CCCc4ccccc43)ccn2)c1 [Example 227]	rat NaP2b (SLC34A2) (Rattus norvegicus, UniProt Q9JJ09)	1 to 7.94 µM
O=C(O)CCSCc1cccc(C(=O)Nc2ccc(N3CCCCC3)cc2-c2cc(Nc3cccc(C(F)(F)F)c3)ncn2)c1 [Example 3.10]	rat NaP2b (SLC34A2) (Rattus norvegicus, UniProt Q9JJ09)	1 to 7.94 µM
CC(=O)NC1CCN(C(=O)c2cccc(C(=O)Nc3ccc(N4CCCCC4)cc3-c3cc(C(=O)NCc4cccc(C(F)(F)F)c4)ccn3)c2)C1 (stereo in doubt) [Example 4.10]	rat NaP2b (SLC34A2) (Rattus norvegicus, UniProt Q9JJ09)	10 to 31.6 µM
CN(Cc1ncc[nH]1)C(=O)c1cccc(C(=O)Nc2ccc(N3CCCCC3)cc2-c2cc(C(=O)NCc3cccc(C(F)(F)F)c3)ccn2)c1 [Example 4.24]	rat NaP2b (SLC34A2) (Rattus norvegicus, UniProt Q9JJ09)	1 to 7.94 µM
O=C(O)CCOCCOCCOCCNC(=O)c1cccc(SCc2cccc(C(=O)Nc3ccc(N4CCCCC4)cc3-c3cc(C(=O)N[C@H]4CCCc5ccccc54)ccn3)c2)c1 [Example 233]	rat NaP2b (SLC34A2) (Rattus norvegicus, UniProt Q9JJ09)	1 to 7.94 µM
CCN(CC)c1ccc(NC(=O)c2cccc(C(=O)N(C)CCN(C)CCOCCOCCOCCNS(C)(=O)=O)c2)c(-c2cc(C(=O)N[C@H]3CCCc4ccccc43)ccn2)c1 [Example 226]	rat NaP2b (SLC34A2) (Rattus norvegicus, UniProt Q9JJ09)	< 1 µM
Cc1cccc(CNc2cc(-c3cc(N4CCCCC4)ccc3NC(=O)c3cccc(CSCCC(=O)O)c3)ncn2)c1 [Example 3.2]	rat NaP2b (SLC34A2) (Rattus norvegicus, UniProt Q9JJ09)	10 to 31.6 µM
O=C(O)CCSCc1cccc(C(=O)Nc2ccc(N3CCCCC3)cc2-c2cc(NCCc3cccc(C(F)(F)F)c3)ccn2)c1 [Example 70]	rat NaP2b (SLC34A2) (Rattus norvegicus, UniProt Q9JJ09)	10 to 31.6 µM
O=C(O)CCCC1CCN(C(=O)c2cccc(C(=O)Nc3ccc(N4CCCCC4)cc3-c3cc(C(=O)NCc4cccc(C(F)(F)F)c4)ccn3)c2)CC1 [Example 112]	rat NaP2b (SLC34A2) (Rattus norvegicus, UniProt Q9JJ09)	1 to 7.94 µM
O=C(O)CCc1ccc(SCc2cccc(C(=O)Nc3ccc(N4CCCCC4)cc3-c3cc(C(=O)NCc4cccc(C(F)(F)F)c4)ccn3)c2)cc1 [Example 8.8]	rat NaP2b (SLC34A2) (Rattus norvegicus, UniProt Q9JJ09)	< 1 µM
O=C(NCc1cccc(C(F)(F)F)c1)c1ccnc(-c2cc(N3CCCCC3)ccc2NC(=O)c2cccc(CSCCCCO)c2)c1 [Example 8.4]	rat NaP2b (SLC34A2) (Rattus norvegicus, UniProt Q9JJ09)	1 to 7.94 µM
Cc1nc(SCc2cccc(C(=O)Nc3ccc(N4CCCCC4)cc3-c3cc(C(=O)NCc4cccc(C(F)(F)F)c4)ccn3)c2)sc1CC(=O)O [Example 8.16]	rat NaP2b (SLC34A2) (Rattus norvegicus, UniProt Q9JJ09)	1 to 7.94 µM
